Data provenance: ChEMBL document CHEMBL1147171

Measured IC50 by item
- Tested on: Plasmodium falciparum
- Assay name: Antiparasitic activity against chloroquine-sensitive Plasmodium falciparum NF54 in erythrocytes by [3H]hypoxanthine uptake
- Format: functional, organism-based

>  <Structure string>
O=C(CCCCc1ccccc1)NCCCN1CCN(CCCNc2ccnc3cc(Cl)ccc23)CC1

>  <Target>
Plasmodium falciparum

>  <U>
µM

>  <IC50>
0.012

$$$$
>  <Structure string>
O=C(NCCCN1CCN(CCCNc2ccnc3cc(Cl)ccc23)CC1)c1ccc(Cl)c([N+](=O)[O-])c1

>  <Target>
Plasmodium falciparum

>  <U>
µM

>  <IC50>
0.02

$$$$
>  <Structure string>
CCc1ccc(C(=O)NCCCN2CCN(CCCNc3ccnc4cc(Cl)ccc34)CC2)cc1

>  <Target>
Plasmodium falciparum

>  <U>
µM

>  <IC50>
0.008

$$$$
>  <Structure string>
NC(=O)c1ccc(C(=O)NCCCN2CCN(CCCNc3ccnc4cc(Cl)ccc34)CC2)cc1

>  <Target>
Plasmodium falciparum

>  <U>
µM

>  <IC50>
0.083

$$$$
>  <Structure string>
O=C(NCCCN1CCN(CCCNc2ccnc3cc(Cl)ccc23)CC1)c1ccc(F)c(F)c1

>  <Target>
Plasmodium falciparum

>  <U>
µM

>  <IC50>
0.007

$$$$
>  <Structure string>
O=C(NCCCN1CCN(CCCNc2ccnc3cc(Cl)ccc23)CC1)c1cccc(OC(F)(F)F)c1

>  <Target>
Plasmodium falciparum

>  <U>
µM

>  <IC50>
0.012

$$$$
>  <Structure string>
COc1ccc(C(=O)NCCCN2CCN(CCCNc3ccnc4cc(Cl)ccc34)CC2)cc1OC

>  <Target>
Plasmodium falciparum

>  <U>
µM

>  <IC50>
0.036

$$$$
>  <Structure string>
CC(=O)CCC(=O)NCCCN1CCN(CCCNc2ccnc3cc(Cl)ccc23)CC1

>  <Target>
Plasmodium falciparum

>  <U>
µM

>  <IC50>
0.059

$$$$
>  <Structure string>
O=C(NCCCN1CCN(CCCNc2ccnc3cc(Cl)ccc23)CC1)c1ccc(C(=O)c2ccccc2)cc1

>  <Target>
Plasmodium falciparum

>  <U>
µM

>  <IC50>
1.54

$$$$
